Listed here are compounds together with their documented B. cerius MIC.
Tested on: Bacillus cereus ATCC 11778
Format: cell-based
Non-standard residues stand in square brackets, D forms with d. Residues, ends and D or L forms follow the SMILES beside them.
assay-readout: B. cerius MIC

INSERT INTO assay_data (compound, result) VALUES
  ('CC(C)C[C@H]1NC(=O)[C@H](Cc2c[nH]c3ccccc23)NC(=O)[C@@H](CCCCN)NC(=O)[C@H](Cc2c[nH]cn2)NC(=O)[C@@H](CCCCN)NC(=O)[C@H](Cc2c[nH]c3ccccc23)NC(=O)[C@@H](CC(C)C)NC(=O)[C@H](Cc2c[nH]c3ccccc23)NC1=O [SEQ ID NO:22, KHKWLWLW] (cyclo([dK]H[dK]W[dL]W[dL]W))', '8 µg/mL'),
  ('CC(C)C[C@H]1NC(=O)[C@H](Cc2c[nH]c3ccccc23)NC(=O)[C@@H](Cc2c[nH]cn2)NC(=O)[C@H](Cc2c[nH]cn2)NC(=O)[C@@H](CO)NC(=O)[C@H](Cc2c[nH]c3ccccc23)NC(=O)[C@@H](CC(C)C)NC(=O)[C@H](Cc2c[nH]c3ccccc23)NC1=O [SEQ ID NO:15, SHHWLWLW] (cyclo([dS]H[dH]W[dL]W[dL]W))', '11 µg/mL'),
  ('CC(C)C[C@H]1NC(=O)[C@H](Cc2c[nH]c3ccccc23)NC(=O)[C@@H](CCCCN)NC(=O)[C@H](CCCNC(=N)N)NC(=O)[C@@H](CCCNC(=N)N)NC(=O)[C@H](Cc2c[nH]c3ccccc23)NC(=O)[C@@H](CC(C)C)NC(=O)[C@H](Cc2c[nH]c3ccccc23)NC1=O [SEQ ID NO:18] (cyclo([dR]R[dK]W[dL]W[dL]W))', '5 µg/mL');

* * *

Assay: Toxicity studies in mice
Assay type: in vivo
Conditions: male, Balb-C, mouse, in vivo, ip; Table 13
Non-standard residues stand in square brackets, D forms with d. Residues, ends and D or L forms follow the SMILES beside them.
Listed here are molecules together with their documented LD50 at 14 days.
assay-readout: LD50 at 14 days (mg/kg)

INSERT INTO results (molecule, inequality_sign, numeric_value) VALUES
  ('CC(C)C[C@H]1NC(=O)[C@H](Cc2c[nH]c3ccccc23)NC(=O)[C@@H](CCCCN)NC(=O)[C@H](CCCNC(=N)N)NC(=O)[C@@H](CCCNC(=N)N)NC(=O)[C@H](Cc2c[nH]c3ccccc23)NC(=O)[C@@H](CC(C)C)NC(=O)[C@H](Cc2c[nH]c3ccccc23)NC1=O [SEQ ID NO:18] (cyclo([dR]R[dK]W[dL]W[dL]W))', '=', 60),
  ('CC(C)C[C@H]1NC(=O)[C@H](Cc2c[nH]c3ccccc23)NC(=O)[C@@H](CCCCN)NC(=O)[C@H](CO)NC(=O)[C@@H](CCCCN)NC(=O)[C@H](Cc2c[nH]c3ccccc23)NC(=O)[C@@H](CC(C)C)NC(=O)[C@H](Cc2c[nH]c3ccccc23)NC1=O [SEQ ID NO:12, D-Lys-Ser-D-Lys-Trp-D-Leu-Trp-D-Leu-Trp] (cyclo([dK]S[dK]W[dL]W[dL]W))', '>', 400),
  ('CC(C)C[C@H]1NC(=O)[C@H](CCCCN)NC(=O)[C@@H](CCCCN)NC(=O)[C@H](Cc2c[nH]c3ccccc23)NC(=O)[C@@H](CC(C)C)NC(=O)[C@H](Cc2c[nH]c3ccccc23)NC1=O [SEQ ID NO:26, cyclo-(D-Lys-Lys-D-Leu-Trp-D-Leu-Trp)] (cyclo(K[dL]W[dL]W[dK]))', '=', 75),
  ('CC(C)C[C@H]1NC(=O)[C@H](Cc2c[nH]c3ccccc23)NC(=O)[C@@H](CCCNC(=N)N)NC(=O)[C@H](CCC(N)=O)NC(=O)[C@@H](CCCCN)NC(=O)[C@H](Cc2c[nH]c3ccccc23)NC(=O)[C@@H](CC(C)C)NC(=O)[C@H](Cc2c[nH]c3ccccc23)NC1=O [SEQ ID NO:8] (cyclo([dK]Q[dR]W[dL]W[dL]W))', '=', 55);
